The values you see were collected from patent US7026443.

TEST_TARGET: HLA-A*0301 (human)
EXPERIMENT: competitive inhibition of 125I-labelled standard peptide binding to purified HLA, gel filtration
# binding affinity ratio (IC50 of standard peptide / IC50 of test peptide) >= 0.003 gives Y, anything below gives N

Before answering, review these 5 worked examples.
- BINDER: "QVLHVLKRK (modifications not checked) [HPV18 E1 position 80 peptide …]"
  CLASSIFICATION: "N"
- BINDER: "LILALLRYK (modifications not checked) [HPV18 E1 position 281 peptide …]"
  CLASSIFICATION: "Y"
- BINDER: "NIHPAKDNR (modifications not checked) [HPV18 E1 position 574 peptide …]"
  CLASSIFICATION: "N"
- BINDER: "NSGQKKAKR (modifications not checked) [HPV18 E1 position 119 peptide …]"
  CLASSIFICATION: "N"
- BINDER: "KSFLKGTPK (modifications not checked) [HPV18 E1 position 468 peptide …]"
  CLASSIFICATION: "N"

Request: hey, is binding affinity ratio (IC50 of standard peptide / IC50 of test peptide) for this one >= 0.003? LTTNIHPAK (modifications not checked) [HPV18 E1 position 571 peptide …]
Result: Y

Request: Assess whether reported binding affinity ratio (IC50 of standard peptide / IC50 of test peptide) for KLRAGQNHR (modifications not checked) [HPV18 E1 position 647 peptide …] sits at 0.003 or higher.
Result: Y

Request: Record WTYFDTYMR (modifications not checked) [HPV18 E1 position 536 peptide …] ; criterion: binding affinity ratio (IC50 of standard peptide / IC50 of test peptide) no lower than 0.003. Met?
Result: N
